Quick list: pIC50 per entry.
molecular target: HLA-A*02:03; experiment: IEDB peptide-MHC binding, cellular MHC/competitive/fluorescence; bounds were set here for any values at or beyond the usual limits of such assays; settings: source organism: Vaccinia virus WR
Entry type: numeric. Quantity: pIC50, the -log10 of concentration in molar units.

Item: VLKAMHDKKI | pIC50: 4.47

Item: DVSVSVGTGI | pIC50: 5.23

Item: PTLFGRGVI | pIC50: 5.17

Item: RASTTENAA | pIC50: 4.18

Item: PVVYHDDDNT | pIC50: 4.57

Continuing:
Item: TINALVYFST | pIC50: 5.13

Item: ELPVKTDIV | pIC50: 5.09

Item: PTEMVDVSM | pIC50: 4.38

Item: WLRAKRKPAM | pIC50: 4.70

Item: GANGSTAEQL | pIC50: 4.34

Item: NVTGFMEEEI | pIC50: 5.29

Item: NLYISDYKM | pIC50: 4.60

###

biological target: HLA-A*02:01; experiment: IEDB peptide-MHC binding, purified MHC/competitive/radioactivity; bounds were set here for any values at or beyond the usual limits of such assays; details: source organism: Vaccinia virus WR
Records here are stratified by IC50; strata: group A = under 30 nM, group B = from 30 nM up to 800 nM, group C = 800 nM and over

Please review the entries below; each comes with its answer.
Place this sequence in its band: FVFILTAIL
group A

Place this sequence in its band: IAGGVCYYLL
group B

Place this sequence in its band: LLYAHINAL
group A

Place this sequence in its band: FLDWIKDIMT
group B

Place this sequence in its band: DIMTSTRTI
group C

Place this sequence in its band: VTLNRIKIA
group C

Place this sequence in its band: VLDATNDGLI
group B

Place this sequence in its band: YMSFWCKSI
group A

Place this sequence in its band: LTNVVNIST
group C

Place this sequence in its band: YLMPYSVYI
group A

Continuing:
Place this sequence in its band: GMLFVNDLMT
group C

Place this sequence in its band: MITMSAFLI
group B

###

molecular target: HLA-A*02:03; assay: IEDB peptide-MHC binding, purified MHC/competitive/radioactivity; bounds were set here for any values at or beyond the usual limits of such assays; details: source organism: Vaccinia virus WR
Label TRUE when IC50 is strictly below 100 nM; at or above that, label FALSE.

Please indicate whether the reported IC50 of IAVSVYGAI is strictly below 100 nM.
FALSE

Please indicate whether the reported IC50 of LTKDRKMLEL is strictly below 100 nM.
FALSE

Please indicate whether the reported IC50 of TAIRAGYSIV is strictly below 100 nM.
TRUE

Please indicate whether the reported IC50 of RIITILQDI is strictly below 100 nM.
TRUE

Please indicate whether the reported IC50 of DLNRMPTDML is strictly below 100 nM.
FALSE

Please indicate whether the reported IC50 of LTNAISSRV is strictly below 100 nM.
TRUE

###

target: HLA-A*02:03; assay: IEDB peptide-MHC binding, purified MHC/competitive/radioactivity; bounds were set here for any values at or beyond the usual limits of such assays; details: source organism: Vaccinia virus WR
measurement.label: IC50 (nM)
Write down the numeric answer in nM and omit the unit.

# count of solved cases: 10
Item: PTWLGAAITL | IC50: 1010

Item: SLSNLDFRL | IC50: 1760

Item: ITTLLNETA | IC50: 936

Item: MLTNAISSRV | IC50: 0.11

Item: YIILFILFFA | IC50: 674

Item: ITPNNLNKI | IC50: 876

Item: FVMCLEAKT | IC50: 1940

Item: SVQLSNNKYV | IC50: 820

Item: QIGGEAIFLI | IC50: 0.2

Item: LLEMKYALI | IC50: 135

Now turn to the next sequence.
Item: LLLENKSLTI | IC50: 985
